ASSAY INFO: Cmax in male Sprague-Dawley rat at 75 mg/kg, po measured after 1 month repeated dosing by LC-MS/MS analysis
Type: ADME, organism-based
Set-up: dose 75 mg/kg, route oral
CONDITION: in vivo

QUERY SMILES | Cmax at 1 month (ng/mL)
C[C@]1(c2cc(NC(=O)c3ccc(C#N)cn3)ccc2F)N=C(N)CO[C@H]1C(F)(F)F | 1490

====

ASSAY INFO: Oral bioavailability in Beagle dog at 10 mg/kg administered as bolus dose by LC-MS/MS analysis
Format: ADME, organism-based, Canis lupus familiaris
CONDITION: in vivo

QUERY SMILES | ENDPOINT UNIT | bioavailability
C[C@]1(c2cc(NC(=O)c3ccc(C#N)cn3)ccc2F)N=C(N)CO[C@H]1C(F)(F)F | % | 71

The measured values listed here are drawn from ChEMBL document CHEMBL4130624.
